src = patent US11370763B2

Exercise: for every item that follows, state its recorded IC50.
System: IL-1β production in PMA-differentiated THP-1 cells
Assay: IL-1β production in PMA-differentiated THP-1 cells stimulated with gramicidin (hTHP-1 assay containing 2% fetal bovine serum; Procedures 1-3)
Type: cell-based, human
Settings: hTHP-1 assay containing 2% fetal bovine serum; class symbols; read-out: hTHP-1 IC50 (Average IC50 of compounds in hTHP-1 assay)

Some solved entries appear below for comparison.
{"columns": ["Molecule", "Test readout", "Experimental value"],
 "data": [
  ["Cc1ccc(-c2cc(C(C)C)c(CC(=O)N=S(N)(=O)c3ncc(C(C)(C)O)s3)c(C(C)C)c2)cc1C (single isomer, unassigned)", "IC50", "200 to 1000 nM"],
  ["CC(C)c1ccc(C#N)c(C(C)C)c1CC(=O)N=S(N)(=O)c1nc(C(C)(C)O)cs1 (single isomer, unassigned)", "IC50", "200 to 1000 nM"],
  ["COCc1cc(C(C)C)c(CC(=O)N=S(N)(=O)c2ncc(C(C)(C)O)s2)c(C(C)C)c1 (single isomer, unassigned)", "IC50", "40 to 200 nM"],
  ["CC(C)c1cc(F)cc(C(C)C)c1CC(=O)N=S(N)(=O)c1ccc(C(C)(C)O)cc1 (stereo not drawn)", "IC50", "5000 to 30000 nM"]
]}

Please state IC50 for every molecule in the list that follows.
1. CCc1cc(OC(F)F)cc(C(C)C)c1CC(=O)N=S(N)(=O)c1sc(C(C)(C)O)cc1F (single isomer, unassigned)
2. CC(C)c1nc(-c2cccc(C(F)(F)F)c2)c(F)c(C(C)C)c1CC(=O)N=S(N)(=O)c1cnc(C(C)(C)O)s1 (single isomer, unassigned)

1: 200 to 1000 nM; 2: 200 to 1000 nM

----------
System: IL-1β production in PMA-differentiated THP-1 cells
Assay: IL-1β production in PMA-differentiated THP-1 cells stimulated with gramicidin (hTHP-1 assay containing 2% fetal bovine serum; Procedures 1-3)
Format: cell-based, human
Conditions: Homo sapiens, THP-1, hTHP-1 assay containing 2% fetal bovine serum; class symbols; read-out: hTHP-1 IC50 (Average IC50 of compounds in hTHP-1 assay)
Test readout: IC50

{"columns": ["Molecule", "IC50"],
 "data": [
  ["CC(C)c1cc(-c2ccc(Cl)c(Cl)c2)cc(C(C)C)c1CC(=O)N=S(N)(=O)c1cnc(C(C)(C)O)s1 (stereo not drawn) [Example 112]", "200 to 1000 nM"]
]}

Please state IC50 for every molecule in the list that follows.
1. CC(C)(O)c1cnc(S(N)(=O)=NC(=O)Cc2c3c(cc4c2CCC4)CCC3)s1 (stereo not drawn) [Example 4]
2. CC(C)c1ncc(F)c(C(C)C)c1CC(=O)N=S(N)(=O)c1ncc(C(C)(C)O)s1 (stereo not drawn) [Example 144]
3. CC(C)c1cc(F)cc(C(C)C)c1CC(=O)N=S(N)(=O)c1ncc(C(C)(C)C(=O)O)s1 (stereo not drawn) [Example 127]

1: 5000 to 30000 nM; 2: 5000 to 30000 nM; 3: 5000 to 30000 nM

Please state IC50 for every molecule in the list that follows.
1. CC(C)c1ncc(F)c(C(C)C)c1CC(=O)N=S(N)(=O)c1ccn(C(C)C)n1 (stereo not drawn) [Example 148]
2. CC(C)c1cc(F)cc(C2CC2)c1CC(=O)N=S(N)(=O)c1ccc(CN(C)C)cc1 (single isomer, unassigned) [Example 47]
3. CC(C)c1cc2c(c(C(C)C)c1CC(=O)N=S(N)(=O)c1cnc(C(C)(C)O)s1)CCC2 (stereo not drawn) [Example 142]
4. CC(C)c1cc(-c2ccc3c(c2)CCOC3)cc(C(C)C)c1CC(=O)N=S(N)(=O)c1sc(C(C)(C)O)nc1CO (stereo not drawn) [Example 137]
5. Cc1cc(CN(C)C)ccc1S(N)(=O)=NC(=O)Cc1c(C(C)C)cc(OC(F)F)cc1C1CC1 (stereo not drawn) [Example 26]
6. CC(C)c1ccc(F)c(C(C)C)c1CC(=O)N=S(N)(=O)c1cc(C(C)(C)O)cs1 (stereo not drawn) [Example 106]
7. CC(C)c1cc(Cl)c(F)c(C2CC2)c1CC(=O)N=S(N)(=O)c1sc(C(C)(C)O)cc1F (stereo not drawn) [Example 20]
8. COCc1cc(C(C)C)c(CC(=O)N=S(N)(=O)c2cnc(C(C)(C)O)s2)c(C(C)C)c1F (stereo not drawn) [Example 109]

1. 5000 to 30000 nM
2. 200 to 1000 nM
3. 1000 to 5000 nM
4. 200 to 1000 nM
5. 1000 to 5000 nM
6. 40 to 200 nM
7. 200 to 1000 nM
8. 40 to 200 nM

Please state IC50 for every molecule in the list that follows.
1. CC(C)c1cc(OC(F)F)cc(C(C)C)c1CC(=O)N=S(N)(=O)c1cnc(C(C)(C)O)s1 (stereo not drawn) [Example 16]
2. CC(C)c1ncc(F)c(C(C)C)c1CC(=O)N=S(N)(=O)c1nc(C(C)(C)O)cs1 (stereo not drawn) [Example 147]

["200 to 1000 nM", "1000 to 5000 nM"]

Please state IC50 for every molecule in the list that follows.
1. CC(C)c1cc(C#N)cc(C(C)C)c1CC(=O)N=S(N)(=O)c1ccc(CN(C)C)cc1 (stereo not drawn) [Example 28]
2. CC(C)c1cc2c(c(C(C)C)c1CC(=O)N=S(N)(=O)c1ccc(CN(C)C)cc1)COC2 (single isomer, unassigned) [Example 191]
3. COc1ccc2cc(-c3cc(C(C)C)c(CC(=O)N=S(N)(=O)c4ncc(C(C)(C)O)s4)c(C(C)C)c3)ccc2c1 (stereo not drawn) [Example 126]
4. CC(C)c1cc2c(c(C(C)C)c1CC(=O)N=S(N)(=O)c1ccc(CN(C)C)cc1)COC2 (stereo not drawn) [Example 134]
5. CC(C)c1cc(C#N)c(F)c(C(C)C)c1CC(=O)N=S(N)(=O)c1nc(C(C)(C)O)cs1 (stereo not drawn) [Example 133]
6. CC(C)c1cc(C#N)cc(C(C)C)c1CC(=O)N=S(N)(=O)c1ccc(C(C)(C)O)cc1Cl (single isomer, unassigned) [Example 155]
7. CC(C)c1cc(F)cc(C(C)C)c1C(C)C(=O)N=S(N)(=O)c1cnc(C(C)(C)O)s1 (single isomer, unassigned) [Example 194]
8. CC(C)c1cc(F)c(F)c(C(C)C)c1CC(=O)N=S(N)(=O)c1nc(C(C)(C)O)cs1 (stereo not drawn) [Example 124]

1. 1000 to 5000 nM
2. 1000 to 5000 nM
3. 200 to 1000 nM
4. 1000 to 5000 nM
5. 200 to 1000 nM
6. 200 to 1000 nM
7. 5000 to 30000 nM
8. 200 to 1000 nM

----------
Exercise: for every item that follows, state its recorded IC50.
System: IL-1β production in PMA-differentiated THP-1 cells
Experiment: IL-1β production in PMA-differentiated THP-1 cells stimulated with gramicidin (hTHP-1 assay containing 2% fetal bovine serum; Procedures 1-3)
Type: cell-based, human
Details: hTHP-1 assay containing 2% fetal bovine serum; class symbols; read-out: hTHP-1 IC50 (Average IC50 of compounds in hTHP-1 assay)
Experimental: The following protocol is suitable for testing the activity of the compounds disclosed herein. Procedure 1: IL-1β Production in PMA-Differentiated THP-1 Cells Stimulated with Gramicidin […] THP-1 cells were treated with PMA (Phorbol 12-myristate 13-acetate) (20 ng/ml) for 16-18 hours. […] The plates were incubated for 18 h at 4° C. and read using the preset HTRF program (donor emission at 620 nm, acceptor emission at 668 nm) of the SpectraMax i3x spectrophotometer (Molecular Devices, software SoftMax 6). […]

Some solved entries appear below for comparison.
{"columns": ["Molecule", "Target entity", "IC50"],
 "data": [
  ["CC(C)c1cc(-c2ccc3c(c2)OC(F)(F)O3)cc(C(C)C)c1CC(=O)N=S(N)(=O)c1ncc(C(C)(C)O)s1 (single isomer, unassigned)", "IL-1β production in PMA-differentiated THP-1 cells", "40 to 200 nM"],
  ["CC(C)c1cc(OC(F)F)cc(C(C)C)c1CC(=O)N=S(N)(=O)c1sc(C(C)(C)O)cc1F (single isomer, unassigned)", "IL-1β production in PMA-differentiated THP-1 cells", "40 to 200 nM"],
  ["CC(C)c1cc(-c2ccc3c(c2)COCC3)cc(C(C)C)c1CC(=O)N=S(N)(=O)c1cnc(C(C)(C)O)s1 (single isomer, unassigned)", "IL-1β production in PMA-differentiated THP-1 cells", "200 to 1000 nM"],
  ["COCc1cc(C(C)C)c(CC(=O)N=S(N)(=O)c2sc(C(C)(C)O)nc2CO)c(C(C)C)c1 (single isomer, unassigned)", "IL-1β production in PMA-differentiated THP-1 cells", "200 to 1000 nM"],
  ["CC(C)c1ncc(F)c(C(C)C)c1CC(=O)N=S(N)(=O)c1sc(C(C)(C)O)cc1F (single isomer, unassigned)", "IL-1β production in PMA-differentiated THP-1 cells", "200 to 1000 nM"],
  ["CC(C)c1cc(-c2ccc(Cl)c(Cl)c2)cc(C(C)C)c1CC(=O)N=S(N)(=O)c1ncc(C(C)(C)O)s1 (single isomer, unassigned)", "IL-1β production in PMA-differentiated THP-1 cells", "200 to 1000 nM"]
]}

I have this molecule here, CC(C)c1cc(Cl)c(F)c(C2CC2)c1CC(=O)N=S(N)(=O)c1sc(C(C)(C)O)cc1F (single isomer, unassigned) , and I need its recorded IC50.
200 to 1000 nM
